System: Mycobacterium tuberculosis
Assay: Antitubercular activity against Mycobacterium tuberculosis H37Rv after 4 days by MABA assay
Type: functional
Settings: 96 h
quantity_kind: MIC (µg/mL)
I only need the number, in µg/mL, no unit after it.

Worked examples follow.
CCOC(=O)C1=C(C)N(c2cccc(C)c2)C(C)=C(C(=O)OCC)C1c1cn(-c2ccccc2)nc1-c1ccccc1    1.56
CC(=O)C1=C(C)N(c2ccccc2C)C(C)=C(C(C)=O)C1c1cn(-c2ccccc2)nc1-c1ccccc1    3.13
CCOC(=O)C1=C(C)N(c2ccccc2)C(C)=C(C(=O)OCC)C1c1cn(-c2ccccc2)nc1-c1ccccc1    1.56

Okay, next one:
Prompt: For Mycobacterium tuberculosis, give the measured MIC of the entry `CC(=O)C1=C(C)N(c2cccc(C)c2)C(C)=C(C(C)=O)C1c1cn(-c2ccccc2)nc1-c1ccccc1`
Response: 6.25

###

Tested on: Mycobacterium tuberculosis
Assay: Antitubercular activity against Mycobacterium tuberculosis H37Rv after 4 days by MABA assay
Assay type: functional
Settings: 96 h
Recorded MIC, one value per entry.
Provide the reading as a plain figure in µg/mL.

Examples with answers:
CCOC(=O)C1=C(C)N(c2ccccc2C)C(C)=C(C(=O)OCC)C1c1cn(-c2ccccc2)nc1-c1ccccc1    3.13
CCOC(=O)C1=C(C)N(c2cccc(Cl)c2)C(C)=C(C(=O)OCC)C1c1cn(-c2ccccc2)nc1-c1ccccc1    1.56
NNC(=O)c1ccncc1    0.03
CCOC(=O)C1=C(C)N(c2ccccc2Cl)C(C)=C(C(=O)OCC)C1c1cn(-c2ccccc2)nc1-c1ccccc1    0.02

As a next step, examine the compound that follows.
Prompt: Supply recorded MIC for `CCOC(=O)C1=C(C)N(c2ccc(C)cc2)C(C)=C(C(=O)OCC)C1c1cn(-c2ccccc2)nc1-c1ccccc1` here.
Response: 48

###

# Selectivity Index per record follows
Experiment: Selectivity index, ratio of IC50 for african green monkey Vero cells to MIC for Mycobacterium tuberculosis H37Rv
Type: functional

The following compounds have reported results that may help.
CCOC(=O)C1=C(C)N(c2ccccc2)C(C)=C(C(=O)OCC)C1c1cn(-c2ccccc2)nc1-c1ccccc1    >6.4
CCOC(=O)C1=C(C)N(c2ccccc2Cl)C(C)=C(C(=O)OCC)C1c1cn(-c2ccccc2)nc1-c1ccccc1    >500

// moving on: another record for Selectivity Index
Prompt: Fill in Selectivity Index for record `CCOC(=O)C1=C(C)N(c2ccccc2C)C(C)=C(C(=O)OCC)C1c1cn(-c2ccccc2)nc1-c1ccccc1`
Response: >3.2
